Parameter koff: see the listing below.
Biological target: T1, His-tagged human HVEM (human, UniProt Q92956 39-202, limits assumed)
T1 construct: Analyte of the BLI assay, 200 nM in PBS; not shown: His tag
T1 sequence (looked up): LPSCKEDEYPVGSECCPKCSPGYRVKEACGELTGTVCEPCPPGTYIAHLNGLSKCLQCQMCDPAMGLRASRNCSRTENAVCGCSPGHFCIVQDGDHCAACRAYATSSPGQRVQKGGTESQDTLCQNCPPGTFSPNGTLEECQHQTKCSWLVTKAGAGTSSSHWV
Experiment: BLI OctetRed96, mAb captured, 200 nM His-HVEM
# include the unit after the value

Reference set (2 entries):
Input: Let me know recorded koff for Ab_073 (H5S20-9A9A) (antibody, V domains shown, also called Ab_73) VH: EVQLQQSGADLVKPGASVKLSCTASGFNIRDTYMHWVNQRPEQGLEWIGRIDPANGNTKYAPKFQGRATITADTSSNTAYLHLSSLTSEDTAVYYCAGYGNSPWFAYWGQGTLVTVSA VL: DVLMTQTPLSLPVNLGDQASISCRSSQSIVHSNGNTYLEWYLQKPGQSPKLLIYKVSNRFSGVPDRFSGSGSGTDFTLKISRVEAEDLGVYYCFQGSHVPLTFGAGTKLELK , thanks.
Output: 0.109 s⁻¹

Input: Given the binder Ab_050 (H5S19-9A11A) (antibody, V domains shown, also called Ab_50) VH: QVQLKQSGPGLVQPSQSLSITCTVSGFSLTTYGVHWVRQSPGKGLEWLGVIWSGGSTDYNAAFISRLSISKDNSKSQVFFKMNSLQANDTAIYYCARRGYGSPYYYAMDYWGQGTSVTVSS VL: EIVLTQSPALMAASPGEKVTITCSVSSSISSSNLHWYQQKSETSPKPWIYGTSNLASGVPVRFSGSGSGTSYSLTISSMEAEDAATYYCQQWSSYPLTFGAGTKLELK , write its reported koff.
Output: 0.00481 s⁻¹

New cases:
Input: Could you please provide reported koff for Ab_025 (H5S15-2A2A) (antibody, V domains shown, also called Ab_25) VH: EVQLQQSGAELVKPGASVKLSCTASGFNIKDTYMHWVKQRPEQGLEWIGRIDPANDNTKYDPKFQGKATITADTSSNTAYLQLSSLTSEDTAVYYCARVYYAMDYWGQGTSVTVSS VL: DIQMTQSPASLSASVGETVTITCRASENIYSYLAWYQQKQGKSPQLLVYNAKTLAEGVPSRFSGSGSGTQFSLKINSLQPEDFGSYYCQHHYGTYTFGGGTKLEIK ? Thanks!
Output: 0.00596 s⁻¹
